measured.on: furin, P09958
Sequence (P09958 whole entry): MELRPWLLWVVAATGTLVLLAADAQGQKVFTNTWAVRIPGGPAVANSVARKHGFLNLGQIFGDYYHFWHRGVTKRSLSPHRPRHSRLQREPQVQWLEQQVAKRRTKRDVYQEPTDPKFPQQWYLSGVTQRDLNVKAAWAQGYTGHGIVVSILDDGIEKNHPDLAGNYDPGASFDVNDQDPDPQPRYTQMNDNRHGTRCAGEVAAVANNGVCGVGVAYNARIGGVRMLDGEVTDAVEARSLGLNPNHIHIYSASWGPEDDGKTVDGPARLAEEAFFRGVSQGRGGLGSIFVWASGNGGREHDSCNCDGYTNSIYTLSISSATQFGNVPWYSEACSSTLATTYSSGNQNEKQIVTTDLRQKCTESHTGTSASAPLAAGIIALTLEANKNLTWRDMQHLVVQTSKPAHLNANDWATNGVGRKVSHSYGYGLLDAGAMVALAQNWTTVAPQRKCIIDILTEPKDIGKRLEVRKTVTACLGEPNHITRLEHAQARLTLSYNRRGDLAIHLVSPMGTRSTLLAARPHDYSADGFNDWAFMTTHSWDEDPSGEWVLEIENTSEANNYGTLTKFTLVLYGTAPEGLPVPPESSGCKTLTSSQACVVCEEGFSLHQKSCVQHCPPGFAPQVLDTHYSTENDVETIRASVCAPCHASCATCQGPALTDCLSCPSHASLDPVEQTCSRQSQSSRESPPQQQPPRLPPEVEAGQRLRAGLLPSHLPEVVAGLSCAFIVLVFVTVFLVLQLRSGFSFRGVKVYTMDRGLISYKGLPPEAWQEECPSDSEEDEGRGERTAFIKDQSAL
assay.info: furin cleavage Z-score vs untreated control; higher = more cleavage, active = 3.5 or more, inactive = 1 or less, 8 variable residues between constant flanks;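 also: purified furin at 1:10 enzyme:substrate in 50 mM HEPES pH 7.5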
assay.setup: 7.5 min
The other results are listed elsewhere or left out. The hit rate among all sequences tested is not known here.
endpoint: furin cleavage Z-score
Response field accepts a number only; no unit should be typed.

Some sequences with known furin cleavage Z-score results, for comparison:
CADSHYQDVLAGNASASA [HC1401]
-0.596
CAEVLTSTWVAGNASASA [HC2185]
0.631
CAKFHRNRRVAGNASASA [FS-38]
1.89
CADEVDGVDEAGNASASA [CS2]
-0.934
CARSQRSEERAGNASASA [FS-2813]
-1.38
CARTRREAPRAGNASASA [FS-2096]
11.6
CARPRRGSLRAGNASASA [FS-2502]
-1.01
CATCTTPCSGAGNASASA [HC1958]
-0.852
CAEEIRVNRSAGNASASA [FS-229]
2.33
CALRARKNRSAGNASASA [FS-942]
8.1

input: Value lookup for furin cleavage Z-score; key = CAEVPCHFPSAGNASASA [HC2367]
output: 0.277

input: Need furin cleavage Z-score of CAYGGRNRRVAGNASASA [FS-151] , thanks.
output: 2

input: Reported furin cleavage Z-score for CAVDAETHVTAGNASASA [HC351] : what is it?
output: -2.06
